Where do the numbers come from? From ChEMBL document CHEMBL3091406.

Would you kindly list MIC for each of these compounds?
# System: Bacillus cereus
# MEASUREMENT_PROTOCOL: Antibacterial activity against Bacillus cereus by CLSI method
# Type: functional
Answers are plain numbers, in µg/mL.

Worked set:
SMILES_REPRESENTATION	MIC (µg/mL)
CN(C)C(=O)/C=C\Sc1ccc(C(C)(C)C)cc1	16
CNC(=O)/C=C\Sc1ccc(C(C)(C)C)cc1	128
CC(C)(C)c1ccc(S/C=C\C(=O)O)cc1	128
CC(C)(C)c1ccc(S/C=C\C(=O)OCC2CC2)cc1	128
CCOC(=O)/C=C\C(=O)c1ccc(C(C)(C)C)cc1	8

Okay, now this compound:
# MIC of `CCOC(=O)/C=C/C(=O)c1ccc(C(C)(C)C)cc1` = 4

* * *

Would you kindly list MIC for each of these molecules?
# Test system: Mycobacterium kansasii
# MEASUREMENT_PROTOCOL: Antimycobacterial activity against Mycobacterium kansasii
# Format: functional
Give bare numbers, in µg/mL.

MOLECULE	UNIT_SPEC	REPORTED_MEASUREMENT
CCOC(=O)CCCc1ccc(C(C)(C)C)cc1	µg/mL	128

Hey, quick one: what's MIC for each of these?
1. CO[C@H]1/C=C/O[C@@]2(C)Oc3c(C)c(O)c4c(O)c(c(/C=N/N5CCN(C)CC5)c(O)c4c3C2=O)NC(=O)/C(C)=C\C=C\[C@H](C)[C@H](O)[C@@H](C)[C@@H](O)[C@@H](C)[C@H](OC(C)=O)[C@@H]1C [RIFAMPIN]
2. CCOC(=O)/C=C\C(=O)c1cc2ccccc2s1
3. CCOC(=O)/C=C/C(=O)c1ccc(C(C)(C)C)cc1
4. CCOC(=O)/C=C\C(=O)c1ccc(C(C)(C)C)cc1

Return:
1: 0.5; 2: 8; 3: 32; 4: 64

* * *

Would you kindly list MIC for each of these molecules?
# Test system: Staphylococcus aureus
# MEASUREMENT_PROTOCOL: Antibacterial activity against Staphylococcus aureus ATCC 29213 by CLSI method
# Type: functional

Worked set:
MOLECULE	MIC
CCOC(=O)/C=C\C(=O)c1ccc(C(C)(C)C)cc1	4 µg/mL
CN(C)C(=O)/C=C\Sc1ccc(C(C)(C)C)cc1	> 128 µg/mL
CC(C)(C)c1ccc(S/C=C\C(=O)OCC2CC2)cc1	> 128 µg/mL

Hey, quick one: what's MIC for each of these?
1. CC(C)N(C(=O)/C=C\Sc1nc2ccccc2s1)C(C)C
2. CC(C)(C)c1ccc(S/C=C\C(=O)O)cc1
3. CC(C)(C)c1ccc(C(=O)/C=C/C(=O)O)cc1
4. CCOC(=O)/C=C/C(=O)c1ccc(C(C)(C)C)cc1

Return:
> 128 µg/mL
> 128 µg/mL
32 µg/mL
2 µg/mL

Hey, quick one: what's MIC for each of these?
1. CCOC(=O)[C@@H]1O[C@H]1C(=O)c1ccc(C(C)(C)C)cc1
2. O=C(O)/C=C\Sc1nc2ccccc2s1
3. CN(C)[C@@H]1C(O)=C(C(N)=O)C(=O)[C@@]2(O)C(O)=C3C(=O)c4c(O)cccc4[C@@](C)(O)[C@H]3C[C@@H]12 [TETRACYCLINE]
4. CC(C)(C)c1ccc(S/C=C\C(=O)Nc2ccccc2)cc1
5. CCOC(=O)CCC(=O)c1ccc(C(C)(C)C)cc1

Return:
["32 µg/mL", "> 128 µg/mL", "0.25 µg/mL", "> 128 µg/mL", "> 128 µg/mL"]

# MIC of `CN(C(=O)/C=C\Sc1ccc(C(C)(C)C)cc1)c1ccccc1` = > 128 µg/mL
